metric: melting point

Study these solved cases before continuing.
NC(=S)NNC(=O)c1cn(-c2ccc(S(N)(=O)=O)cc2)nc1-c1ccc(Br)cc1 = 238 to 241 °C
Cc1ccc(-c2nn(-c3ccc(S(N)(=O)=O)cc3)cc2-c2n[nH]c(=S)[nH]2)cc1 = 255 to 257 °C
COc1ccc(-c2nn(-c3ccc(S(N)(=O)=O)cc3)cc2C(=O)OCC(=O)Nc2nnc(S(N)(=O)=O)s2)cc1 = 240 to 241 °C
NC(=S)NNC(=O)c1cn(-c2ccc(S(N)(=O)=O)cc2)nc1-c1ccccc1 = 180 to 181 °C
NS(=O)(=O)c1ccc(-n2cc(C(=O)OCC(=O)Nc3nnc(S(N)(=O)=O)s3)c(-c3ccccc3)n2)cc1 = 135 to 137 °C
CS(=O)(=O)c1ccc(-c2nn(-c3ccc(S(N)(=O)=O)cc3)cc2C(=O)NNC(N)=S)cc1 = 261 to 262 °C
Cc1ccc(-c2nn(-c3ccc(S(N)(=O)=O)cc3)cc2-c2nnc(N)s2)cc1 = 230 to 234 °C
Cc1ccc(-c2nn(-c3ccc(S(N)(=O)=O)cc3)cc2C(=O)NNC(N)=S)cc1 = 178 to 180 °C

Query block: Look up melting point: `CCOC(=O)c1ccc(NC(=O)COC(=O)c2cn(-c3ccc(S(N)(=O)=O)cc3)nc2-c2ccc(OC)cc2)cc1`
Result block: 121 to 124 °C

Query block: Cool, now `Cc1ccc(-c2nn(-c3ccc(S(N)(=O)=O)cc3)cc2C(=O)OCC(=O)Nc2nnc(S(N)(=O)=O)s2)cc1`
Result block: 115 to 120 °C

Query block: Cool, now `CS(=O)(=O)c1ccc(-c2nn(-c3ccc(S(N)(=O)=O)cc3)cc2C(=O)OCC(=O)Nc2ccc(S(N)(=O)=O)cc2)cc1`
Result block: 132 to 135 °C

Query block: Cool, now `COc1ccc(-c2nn(-c3ccc(S(N)(=O)=O)cc3)cc2C(=O)NNC(N)=S)cc1`
Result block: 205 to 207 °C

Query block: Cool, now `CCOC(=O)c1ccc(NC(=O)COC(=O)c2cn(-c3ccc(S(N)(=O)=O)cc3)nc2-c2ccc(S(C)(=O)=O)cc2)cc1`
Result block: 127 to 130 °C

====

# System: MDA-MB-468
# experimentSummary: NCI-60 one-dose SRB screen (Breast Cancer)
# Type: cell-based
# assayConditions: Homo sapiens, single dose 10 µM, 48 h, read-out: Growth inhibition percent (GI %)
inhibition at 10 µM overview

COc1ccc(-c2nn(-c3ccc(S(N)(=O)=O)cc3)cc2C(=O)OCC(=O)Nc2ccc(S(N)(=O)=O)cc2)cc1 [Compound 4c] = < 5%
CCOC(=O)c1ccc(NC(=O)COC(=O)c2cn(-c3ccc(S(N)(=O)=O)cc3)nc2-c2ccc(S(C)(=O)=O)cc2)cc1 [Compound 5e] = 20.3%
COc1ccc(-c2nn(-c3ccc(S(N)(=O)=O)cc3)cc2C(=O)OCC(=O)Nc2nnc(S(N)(=O)=O)s2)cc1 [Compound 6c] = 7.76%
CCOC(=O)c1ccc(NC(=O)COC(=O)c2cn(-c3ccc(S(N)(=O)=O)cc3)nc2-c2ccc(OC)cc2)cc1 [Compound 5c] = 40%

Now consider the entry below.
Query block: Look up inhibition at 10 µM: Cc1ccc(-c2nn(-c3ccc(S(N)(=O)=O)cc3)cc2-c2n[nH]c(=S)[nH]2)cc1 [Compound 11]
Result block: < 5%

Value source: paper PMC12454493
